- protocol_text: Acid dissociation constant (pKa) determined by computation (ACD/Labs Software Package 1; Gaussian 16 DFT where not calculable)
- protocol_conditions: acid generated from photoacid generator B
Measured Difference between acid dissociation constant a1 and acid dissociation constant a2 accompanies every entry in the list below.
Please give only the number in your answer, with no unit.

Worked examples follow.
CC(C)(C)OC(=O)c1cc(OS(=O)(=O)C(F)(F)S(=O)(=O)[O-])cc(C(=O)[N-]S(=O)(=O)C(F)(F)S(=O)(=O)[O-])c1.Cc1cc(C)cc([S+](c2cc(C)cc(C)c2)c2cc(C(F)(F)F)cc(C(F)(F)F)c2)c1.Cc1cc(C)cc([S+](c2cc(C)cc(C)c2)c2cc(C(F)(F)F)cc(C(F)(F)F)c2)c1.Cc1cc(C)cc([S+](c2cc(C)cc(C)c2)c2cc(C(F)(F)F)cc(C(F)(F)F)c2)c1 ... 4.99
O=C(NS(=O)(=O)C(F)(F)C(F)(F)C(F)(F)S(=O)(=O)O)c1ccccc1I ... 2.97

Looking up CCCCC(CC)C(=O)NS(=O)(=O)C(F)(F)C(F)(F)C(F)(F)S(=O)(=O)NS(=O)(=O)C(F)(F)F (centres unmarked) , I found its Difference between acid dissociation constant a1 and acid dissociation constant a2 recorded as 11.4

Looking up COc1ccc([S+](c2ccccc2)c2ccccc2)cc1.COc1ccc([S+](c2ccccc2)c2ccccc2)cc1.O=C(OCCCS(=O)(=O)[O-])C(F)(F)S(=O)(=O)[O-] , I found its Difference between acid dissociation constant a1 and acid dissociation constant a2 recorded as 4.82

Looking up CC1(OC(=O)c2cc(C(=O)NS(=O)(=O)C(F)(F)C(F)(F)C(F)(F)S(=O)(=O)NS(=O)(=O)C(F)(F)F)cc(C(=O)OC3(C)CCCC3)c2)CCCC1 , I found its Difference between acid dissociation constant a1 and acid dissociation constant a2 recorded as 10.13

Looking up COc1ccc([S+](c2ccccc2)c2ccccc2)cc1.COc1ccc([S+](c2ccccc2)c2ccccc2)cc1.O=S(=O)([O-])C(F)(F)C(F)(F)C(F)(F)S(=O)(=O)[N-]C1CCCCC1 , I found its Difference between acid dissociation constant a1 and acid dissociation constant a2 recorded as 9.59

Looking up O=C(CC(F)(F)F)[N-]S(=O)(=O)C(F)(F)C(F)(F)C(F)(F)S(=O)(=O)[O-].c1ccc([S+](c2ccccc2)c2ccccc2)cc1.c1ccc([S+](c2ccccc2)c2ccccc2)cc1 , I found its Difference between acid dissociation constant a1 and acid dissociation constant a2 recorded as 3.17

Looking up CC1(C)C2CCC1(CS(=O)(=O)[N-]S(=O)(=O)C(F)(F)C(F)(F)C(F)(F)S(=O)(=O)[O-])C(=O)C2.Cc1ccc([S+](c2ccccc2)c2ccccc2)cc1.Cc1ccc([S+](c2ccccc2)c2ccccc2)cc1 (centres unmarked) , I found its Difference between acid dissociation constant a1 and acid dissociation constant a2 recorded as 0.74
